Tested on: HER2 negative cell MDA-MB-468
Assay: Cytotoxicity of α-ADCs in HER2 negative cell MDA-MB-468 (CellTiter-Glo)
Format: cell-based
Details: HER2 negative MDA-MB-468, 72 h
test_readout: pIC50
Units for pIC50: none; it is -log10 of a concentration expressed in mol/L.

Could you share which pIC50 value was measured for COc1cc2cc(c1Cl)N(C)C(=O)C[C@H](OC(=O)[C@H](C)N(C)C(=O)CCS)[C@]1(C)O[C@H]1[C@H](C)[C@@H]1C[C@@](O)(NC(=O)O1)[C@H](OC)/C=C/C=C(\C)C2 [DM1] ? 8.83
